- target: PXR (NR1I2) ligand binding domain (Homo sapiens, UniProt O75469)
- Sequence (O75469 whole entry, the tested form may be a part): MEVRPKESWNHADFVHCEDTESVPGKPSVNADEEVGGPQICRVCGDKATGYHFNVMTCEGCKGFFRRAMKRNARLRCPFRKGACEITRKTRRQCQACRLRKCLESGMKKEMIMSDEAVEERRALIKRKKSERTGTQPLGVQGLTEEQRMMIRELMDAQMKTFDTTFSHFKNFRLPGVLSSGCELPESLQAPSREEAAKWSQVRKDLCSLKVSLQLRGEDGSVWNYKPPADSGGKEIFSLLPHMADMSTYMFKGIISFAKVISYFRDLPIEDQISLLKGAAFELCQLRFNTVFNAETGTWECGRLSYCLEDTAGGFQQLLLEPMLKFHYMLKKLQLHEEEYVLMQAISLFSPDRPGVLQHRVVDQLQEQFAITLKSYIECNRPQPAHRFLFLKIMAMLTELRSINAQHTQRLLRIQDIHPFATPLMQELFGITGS
- test details: Inhibition of BODIPY FL vindoline binding to recombinant human GST-tagged PXR LBD (111 to 434 residues) expressed in baculovirus infected insect cells at 10 uM incubated for 1 mins under shaking condition followed by 60 mins under dark condition by TR-FRET assay relative to control
- applied conditions: probe BODIPY FL vindoline, time 61 min

{"columns": ["molecule", "inhibition at 1.017 h, 10 µM, %"],
 "data": [
  ["CCC[C@H](C)Oc1ccc(C(C)(C)C)cc1NC(=O)c1nnn(-c2cc(OC)ccc2OC)c1C", 87],
  ["CCCCOc1ccc(C(C)(C)C)cc1NC(=O)c1nnn(-c2cccnc2)c1C", 75],
  ["CCCCOc1ccc(C(C)(C)C)cc1NC(=O)c1nnn(-c2ccc(OC)cc2OC)c1C", 54],
  ["CCC(C)COc1ccc(C(C)(C)C)cc1NC(=O)c1nnn(-c2cc(OC)ccc2OC)c1C (stereo not drawn)", 88],
  ["COc1ccc(OC)c(-n2nnc(C(=O)Nc3cc(C(C)(C)C)ccc3NC(=O)OC(C)(C)C)c2C)c1", 75],
  ["CCC[C@@H](C)Oc1ccc(C(C)(C)C)cc1NC(=O)c1nnn(-c2cc(OC)ccc2OC)c1C", 81],
  ["COc1ccc(OC)c(-n2nnc(C(=O)Nc3ccc(NC(C)=O)c(C(C)(C)C)c3)c2C)c1", 65],
  ["COc1ccc(OC)c(-n2nnc(C(=O)Nc3cc(C(C)(C)C)ccc3OCCCCO)c2C)c1", 78],
  ["COc1ccc(OC)c(-n2nnc(C(=O)Nc3cccc(C)c3)c2C)c1", 52],
  ["COc1ccc(OC)c(-n2nnc(C(=O)Nc3cc(B4OC(C)(C)C(C)(C)O4)cc(C(C)(C)C)c3)c2C)c1", 67],
  ["CCCC(C)Oc1ccc(C(C)(C)C)cc1NC(=O)c1nnn(-c2cc(OC)ccc2OC)c1C (racemic)", 90],
  ["COc1ccc(OC)c(-n2nnc(C(=O)Nc3ccc(C(C)(C)C)cc3)c2C)c1", 76],
  ["COc1ccc(OC)c(-n2nnc(C(=O)Nc3cc(N)cc(C(C)(C)C)c3)c2C)c1", 64]
]}
